# Tested on: SN12C renal
# assay details: NCI tumour cell line growth inhibition, 48 h
experimental readout: GI50

compound | system | experimental readout | data value
CCOc1c(C#N)c2c(N)ncnc2n1C1OC(CO)C(O)C1O (configuration not stated) | SN12C renal | GI50 | 3.14 µM
COc1cc(/C=C\c2cc(/C=C\c3ccc(O)c(OC)c3)n(C(=O)CNc3ccc(Cl)cc3)n2)ccc1O | SN12C renal | GI50 | 3.18 µM
CCOC(=O)c1csc(NC(=O)COc2cccc(/C=C3\CSc4ccccc4C3=O)c2)n1 | SN12C renal | GI50 | 1.38 µM
CCC[CH2][Sn]([CH2]CCC)([O]C(=O)c1cc(F)cc(F)c1)[O][Sn]([CH2]CCC)([CH2]CCC)[O]C(=O)c1cc(F)cc(F)c1 | SN12C renal | GI50 | 1.41 µM
COc1ccc(/C=C2\CC(C)CC3C2=NN(c2ccccc2)C3c2ccc(OC)c(OC)c2)cc1OC (configuration not stated) | SN12C renal | GI50 | 3.45 µM
O=C(O)Cn1c2c(c3c(O)cccc31)C(=O)c1ccccc1-2 | SN12C renal | GI50 | > 100 µM
O=S(=O)(Nc1ccc2ccccc2c1)c1ccc(-c2cnc(C3CC3)o2)cc1 | SN12C renal | GI50 | 3.69 µM

* * *

# Test system: NCI-H226 lung
# assay details: NCI tumour cell line growth inhibition, 48 h; in the data active = GI50 below about 0.43 µM; inactive = the rest
Outcomes: active, inactive

molecule | category label
COc1cc(-c2ccc(NC(=O)NC3CC3)c(OC)c2)ccc1NC(=O)NC1CC1 | inactive
CC[C@@H](C)Nc1cc(C(=O)NC2CC3CCC(C2)N3c2ccc(C(=O)C3CC3)cn2)c(C)cc1C(N)=O (some centres undefined) | active
COC(=O)C1=C(O)[C@H](C(=O)OC)[C@]2(O)[C@@H](C(=O)OC)[C@H]1C[C@@H](c1ccc(OC(=O)/C=C/c3ccco3)cc1)[C@@H]2C(=O)OC | inactive
CCOC(=O)c1csc(NC(=O)COc2cccc(/C=C3\CSc4ccccc4C3=O)c2)n1 | inactive
Cc1nnc(-c2ccc(C)c(-c3ccc(C(=O)NCc4ccc(Cl)cc4)cc3)c2)o1 | inactive
O=C(O)Cn1c2c(c3c(O)cccc31)C(=O)c1ccccc1-2 | inactive
CCCCCCN(C)Cc1ccc(OCCOc2ccc(CN(C)CCCCCC)cc2)cc1 | inactive
O=C(Nc1cccnc1)c1ccc2ccc3ccc(C(=O)Nc4cccnc4)nc3c2n1 | active
O=C(Nc1ccc2c(c1)OCO2)C(=O)c1c[nH]c2cc(F)ccc12 | inactive

* * *

Form field: TGI (one value per entry).
# Tested on: SK-OV-3 ovarian
# assay details: NCI tumour cell line growth inhibition, 48 h

compound | TGI
COc1ccc(C[C@H](N)C(=O)N2C[C@@H](CO)C[C@@H](n3cnc4c(N(C)C)ncnc43)C2)cc1 | > 100 µM
Cc1nc(Nc2ccccc2)sc1C(=O)CC(=O)C(=O)NC12CC3CC(CC(C3)C1)C2 | > 100 µM
CC1=NN(C(=O)c2ccncc2)C(=O)C1N=Nc1ccc2ccccc2c1 (stereo not given) | > 100 µM
CC1CCc2c(c(CC3CC(=O)NC(=O)C3)nn2-c2ccccc2)C1 (stereo not given) | > 100 µM
Cc1c(C2Cc3ccccc3N2)c2ccccc2n1C (stereo not given) | > 100 µM
O=C(CN(c1ccc(S(=O)(=O)O)cc1)c1ccc(S(=O)(=O)O)cc1)Nn1cnc2ccc(S(=O)(=O)N(c3ccc(S(=O)(=O)O)cc3)c3ccc(S(=O)(=O)O)cc3)cc2c1=O | > 100 µM
CCC(=O)NCCc1c2c3c(ccnc3c3ncsc13)-c1ccccc1N2 | > 100 µM
O=C1C2ON3c4ccccc4C(=O)C3(c3ccccc3)C2C(=O)N1c1ccccc1 (stereo not given) | > 100 µM
CCCCCCCCCOC(=S)NCCCCC | 87.7 µM
CC(Oc1ccccc1Cl)C(=O)NN1C(=O)CSC1c1ccc(Cl)cc1 (stereo not given) | 39.7 µM

* * *

# Tested on: DU-145 prostate
# assay details: NCI tumour cell line growth inhibition, 48 h
Form field: TGI (one value per entry).

molecule | TGI
O=C1/C(=C/c2cccs2)NC(=S)N1CN1CCCC(CO)C1 (stereo not given) | > 100 µM
O=C1C(Cl)C(c2cc3cc(Br)ccc3nc2Cl)N1c1c(Cl)cccc1Cl (stereo not given) | > 25 µM
COC(=O)[C@@H]1Cc2cc(O)c(O)cc2C2(CCN(C)CC2)O1 | > 10 µM
COc1ccc2c(c1)C(N)=C(Cc1ccncc1)C2=O | > 100 µM
CCC1=NC(C(F)(F)F)(C(F)(F)F)N=C(/N=C(/N)N(C)C(C(C)C)P(=O)(OC(C)C)OC(C)C)O1 (stereo not given) | > 100 µM
CC(C)(C)c1ccc(O)c(CN(Cc2cc(C(C)(C)C)ccc2O)C2CCCCC2)c1 | 45.4 µM
CCN(CC)CCCC(C)Nc1cc(/C=C/c2ccc(Cl)cc2)nc2cc(N(C)C)ccc12 (stereo not given) | 3.21 µM
CC(O)CN1c2ccccc2Sc2ccc(Cl)cc21 (stereo not given) | > 10 µM
COc1ncnc2c1cnn2Cc1cn(CCCCO)nn1 | > 100 µM
CCOC(=O)c1csc(NC(=O)COc2cccc(/C=C3\CSc4ccccc4C3=O)c2)n1 | 0.932 µM

* * *

# System: LOX IMVI melanoma
# assay details: NCI tumour cell line growth inhibition, 48 h

compound | TGI
CCN(CC)C(=S)SS(=O)(=O)c1ccccc1[N+](=O)[O-] | > 57 µM
CCN(CC)COC(=S)S | > 100 µM
O=C(NNC(=S)Nc1ccccc1)c1ccccn1 | > 100 µM
CN(C)CCNC(=O)c1cccc2ncc(-c3ccccc3)nc12 | 29.5 µM
COc1ccc2c(c1)C(N)=C(Cc1ccncc1)C2=O | > 100 µM
C=C1NC(=O)C(CC(C(=O)C(=O)Nc2c(C)cccc2C(C)(C)C)C(=O)c2ccc3ccccc3c2)C(=O)N1 (stereo not given) | > 100 µM
Cn1c(-c2ccc(N=NNc3ccc(-c4n[nH]c(=S)n4C)cc3)cc2)n[nH]c1=S | > 100 µM
COC(=O)c1ccc2c(c1)c1c(C)c3ccncc3c(C)c1n2C | 10.8 µM
CCC1=NC(C(F)(F)F)(C(F)(F)F)N=C(/N=C(/N)N(C)C(C(C)C)P(=O)(OC(C)C)OC(C)C)O1 (stereo not given) | > 100 µM
COc1ccc(C[C@H](N)C(=O)N2C[C@@H](CO)C[C@@H](n3cnc4c(N(C)C)ncnc43)C2)cc1 | > 100 µM

* * *

# Test system: SN12C renal
# assay details: NCI tumour cell line growth inhibition, 48 h

compound | relation | TGI (µM)
Cc1cc(C)n(C(=O)CSc2nnc(SCC(=O)n3nc(C)cc3C)s2)n1 | > | 100
N#Cc1c(N)nc(N2CCSCC2)c(C#N)c1-c1ccc(O)cc1 | = | 50.2
COc1ccc2nc3n(c2c1)C(c1c(Cl)cccc1Cl)SC3 (centres undefined) | > | 100
C=CCc1cccc(/C=N\N=C(/N)NO)c1O | = | 33.5
CC(=O)N/C(=C\c1ccc(/C=C(\NC(C)=O)C2=NC3C(=O)c4ccccc4C(=O)C3N2)cc1)C1=NC2C(=O)c3ccccc3C(=O)C2N1 (centres undefined) | > | 100
COC(=O)C1=C(O)[C@H](C(=O)OC)[C@]2(O)[C@@H](C(=O)OC)[C@H]1C[C@@H](c1ccc(OC(=O)/C=C/c3ccco3)cc1)[C@@H]2C(=O)OC | = | 52.3
COc1cc2c(c(OC(C)=O)c1OC(C)=O)-c1ccc(SC)c(=O)cc1C(NC(C)=O)CC2 (centres undefined) | > | 100
O=C1[C@H](Cl)[C@H]2c3cc4ccccc4nc3Oc3ccccc3N12 | > | 100
CN(C)CCC1(C2=CCCC2)CC/C(=C\c2ccccc2Cl)C1=O (centres undefined) | = | 26.7

* * *

# Tested on: CCRF-CEM leukemia
# assay details: NCI tumour cell line growth inhibition, 48 h
Form field: TGI (one value per entry).
experimental readout: TGI

compound | system | experimental readout | data value
CCN(CC)CCNc1ccc2nnn3c4ccccc4c(=O)c1c23 | CCRF-CEM leukemia | TGI | 18.7 µM
COc1cc(/C=C\c2cc(/C=C\c3ccc(O)c(OC)c3)n(C(=O)CNc3ccc(Cl)cc3)n2)ccc1O | CCRF-CEM leukemia | TGI | 5.45 µM
COc1ccc(NC(=O)CCc2cc(C(C)(C)C)n[nH]2)cc1 | CCRF-CEM leukemia | TGI | > 100 µM
CC(C)CCC(=O)[C@@H](C)[C@H]1[C@@H](OC2OCC(O)C(O)C2NS(C)(=O)=O)C[C@H]2[C@@H]3CC=C4C[C@@H](O)CC[C@]4(C)[C@H]3CC[C@]12C (stereo not given in full) | CCRF-CEM leukemia | TGI | 2.47 µM
Cc1ccc(/C=C(\C#N)c2ccccc2)cc1 | CCRF-CEM leukemia | TGI | > 100 µM
